- experimentalSystem: T1, IL-2Rβ (UniProt P14784 27-240, limits assumed, biotinylated (site not stated))
- T1 construct: also called CD122; IL-2Rbeta
- T1 sequence (looked up): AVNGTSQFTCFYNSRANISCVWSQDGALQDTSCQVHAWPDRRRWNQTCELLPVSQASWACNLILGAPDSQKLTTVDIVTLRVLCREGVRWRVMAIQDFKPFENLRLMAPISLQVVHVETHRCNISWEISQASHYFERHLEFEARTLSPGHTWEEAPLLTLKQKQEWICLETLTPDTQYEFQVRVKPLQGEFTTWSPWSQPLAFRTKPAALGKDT
- testDetails: SPR Biacore T100, steady-state; biotinylated IL-2Rβ on chip
outcomeMeasure: Kd (nM)
Express it in nM; write the number only.

Please review the entries below; each comes with its answer.
- binder: "in silico designed IL-2 variant SEQ ID NO: 15, MSA fusion protein (ligand, not shown: large carriers; small tags and cut ends) APTSSSTKKTQLQLEHLLLDLQMILNMLNNYDNPKLTRMLTFKFYMPKKATELKHLQCLEEELKPLEEALNQAQSKNFHLDPRDLISNINVIVLELKGSETTFMCEYADETATIIEFLNRWITFCQSIISTLT"
  unitAbbrev: "nM"
  number: 498
- binder: "in silico designed IL-2 variant SEQ ID NO: 5, MSA fusion protein (ligand, not shown: large carriers; small tags and cut ends) APTSSSTKKTQLQLEHLLLDLQMILNMLNNYDNPKLTRLLTFKFYMPKKATSLKHLQCLEEELKPLEEALNDAGDDPKTIRDLISNINVIVLELKGSETTFMCEYADETATIIEFLNRWITFCQSIISTLT"
  unitAbbrev: "nM"
  number: 362
- binder: "in silico designed IL-2 variant SEQ ID NO: 1, MSA fusion protein (ligand, not shown: large carriers; small tags and cut ends) APTSSSTKKTQLQLEHLLLDLQMILNMLNNYDNPKLTRLLTFKFYMPKKATSLKHLQCLEEELKPLEEALNAAGDDPKTIRDVVSNINVFVLELKGSETTFMCEYADETATIIEFLNRWITFCQSIISTLT"
  unitAbbrev: "nM"
  number: 61.3

Name the recorded Kd of the binder listed here: in silico designed IL-2 variant SEQ ID NO: 16, MSA fusion protein (ligand, not shown: large carriers; small tags and cut ends) APTSSSTKKTQLQLEHLLLDLQMILNMLNNYDNPKLTRLLTFKFYMPKKATSLKHLQCLEEELKPLEEALNQAQSKNFHLDPRDLISNINVIVLELKGSETTFMCEYADETATIIEFLNRWITFCQSIISTLT
290

Just for reference, patent US20220324934A1 is where these values come from.
